- Tested on: ACHN renal
- TEST_DESCRIPTION: NCI-60 one-dose screen, 48 h
- CONDITION_DETAILS: 10 µM unless noted
About 83,000 compounds went through this panel and 20% of them were active in at least one assay; those are over-represented in the sample as a whole. The source made the active and inactive calls. How the source made its calls: active means growth percent below 10; inactive means the rest.
Hello, when you answer, please use one of the following outcomes: class 1 for active, class 0 for inactive

> print(dat)
                            chemical.string  class.assignment
1   O=C(CSc1nc2ccccc2c(=O)[nH]1)NCCN1CCCCC1           class 0
2       N/C(=N\c1nc2ccccc2s1)NC(=O)NCCCCCCO           class 0
3  CCOc1ccc(-c2c(C#N)c(-c3ccc(Cl)cc3)nc3n[nH]c(-c4ccc(Cl)cc4)c23)cc1OC           class 0
4  COc1ccc(C(=O)/C=C/c2ccc(Oc3nc(Nc4ccc(F)cc4)nc(N(C)C)n3)c(OC)c2)cc1           class 0

Turning now to a further compound:
Request: GET /call?item= `CN1CCN(c2ccc(C(=O)/C=C/c3cc(C(F)(F)F)cc(C(F)(F)F)c3)cc2)CC1` returns the recorded outcome of this test.
Response: class 1

* * *

Exercise: for every item that follows, state its recorded growth.
- Test system: EKVX NSCLC
- TEST_DESCRIPTION: NCI-60 one-dose screen, 48 h (100 = growth as untreated, 0 = no growth, -100 = all killed)
- CONDITION_DETAILS: 10 µM unless noted
- Procedure: Growth inhibition of the EKVX human Non-Small Cell Lung tumor cell line is measured as a screen for anti-cancer activity. Cells are grown in 96 well plates and exposed to the test compound for 48 hours. Compounds are tested at a single concentration, which is 10^-5 M for most compounds. The reported endpoint is percent growth (GI% or GIPRCNT), where numbers from 0 - 100% represent growth inhibition, and numbers from -100% - 0 represent cell death. […]
About 83,000 compounds went through this panel and 20% of them were active in at least one assay; those are over-represented in the sample as a whole.
Answers are plain numbers, in %.

> print(dat)
                                   molecule  endpoint.name  unit.of.measure  reported.measurement
1  COc1ccc(-c2ccc(SCC(=O)NCCc3ccc(S(N)(=O)=O)cc3)nn2)cc1         growth                %                  93.9
2  C(=C\c1cc(/C=C/c2ccccc2)c2ccccc2n1)/c1ccccc1         growth                %                   100
3  C=C1CCC2C3(C)COC(c4ccccc4)OC3CCC2(C)C1CC(Sc1ccccc1)C1=CCOC1=O (centres undefined)         growth                %                  69.3

Each molecule below has a reported value. Please supply its growth.
1. Cc1ccc(C(=O)NN2C(=O)/C(=C/C=C/c3ccc([N+](=O)[O-])o3)SC2=S)cc1
2. O=C(N=Nc1c(O)[nH]c2ccc(Cl)cc12)c1ccc2nc(-c3ccccc3)[nH]c2c1
3. COCOc1ccc2c(=O)c(C)c(C(=O)N[C@@H](Cc3ccccc3)C(O)C(=O)NCCc3ccc(OC)cc3)oc2c1 (some centres undefined)
4. O=C1Nc2ccc([N+](=O)[O-])cc2C1=Nc1ccccc1
5. C#CCOc1cc(N(CC)CC)ccc1C(C(=O)NC(C)(C)C)N(C(=O)C1CCc2cc(F)ccc2O1)c1ccc(F)cc1 (centres undefined)
6. CCOC(=O)c1ccc(Nc2nc(NN)nc(-c3ccc(OC)cc3)c2C#N)cc1

Response:
1: -97; 2: 92.4; 3: 111; 4: 95.9; 5: 37.8; 6: 118
